// read-out IC50, gathered for Tyrosine-protein kinase ABL1 (Homo sapiens) from published studies
Labelling: IC50 reported below 0.08 µM becomes fulfilled; at or above becomes not fulfilled.

{"columns": ["structure-smiles", "assigned-class"],
 "data": [
  ["c1ccc(CN2CCC(Nc3ccc4[nH]nc(-c5nc6cc(N7CCC(N8CCCCC8)CC7)ccc6[nH]5)c4c3)CC2)cc1", "fulfilled"],
  ["Clc1cccc(CNc2[nH]nc3ncnc(Nc4cccc(Cl)c4)c23)c1", "not fulfilled"],
  ["O=C(/C=C/c1cccc(-c2ccc3ncnc(Nc4ccc(OCc5cccc(F)c5)c(Cl)c4)c3c2)c1)NO", "not fulfilled"],
  ["COc1ccc(C(=O)NC[C@H](O)CO)cc1/C=C/c1ccc(Cl)cc1", "not fulfilled"],
  ["Cc1cc(Nc2ncc(C)c(N3CC(CC#N)(N4CCCCC4)C3)n2)sn1", "not fulfilled"],
  ["CN(C)CCn1cc(-c2ccn3c(-c4ccc(C(N)=O)c(OCc5cccc(F)c5)c4)cnc3c2)cn1", "fulfilled"],
  ["COC(Cn1nc(-c2ccc3oc(N)nc3c2)c2c(N)ncnc21)OC", "not fulfilled"],
  ["COc1cc(C=C(C(=O)/C=C/c2ccc(O)c(OC)c2)C(=O)/C=C/c2ccc(O)c(OC)c2)ccc1O", "not fulfilled"],
  ["Nc1ccccc1NC(=O)c1ccc(-c2ccc3ncnc(Nc4ccc(OCc5cccc(F)c5)c(Cl)c4)c3c2)s1", "not fulfilled"]
]}
